biological target: HDAC 1 (Homo sapiens); experiment: HDAC 1 inhibition assay with about 3-hour enzyme/compound preincubation (fluorophore/quencher peptide substrate); format: biochemical; details: 3-hour preincubation of enzyme and compound at room temperature; read-out: HDAC 1 inhibitory activity (IC50 [μM]) (3-hour preincubation)
Sequence (Q13547 whole entry, species assumed): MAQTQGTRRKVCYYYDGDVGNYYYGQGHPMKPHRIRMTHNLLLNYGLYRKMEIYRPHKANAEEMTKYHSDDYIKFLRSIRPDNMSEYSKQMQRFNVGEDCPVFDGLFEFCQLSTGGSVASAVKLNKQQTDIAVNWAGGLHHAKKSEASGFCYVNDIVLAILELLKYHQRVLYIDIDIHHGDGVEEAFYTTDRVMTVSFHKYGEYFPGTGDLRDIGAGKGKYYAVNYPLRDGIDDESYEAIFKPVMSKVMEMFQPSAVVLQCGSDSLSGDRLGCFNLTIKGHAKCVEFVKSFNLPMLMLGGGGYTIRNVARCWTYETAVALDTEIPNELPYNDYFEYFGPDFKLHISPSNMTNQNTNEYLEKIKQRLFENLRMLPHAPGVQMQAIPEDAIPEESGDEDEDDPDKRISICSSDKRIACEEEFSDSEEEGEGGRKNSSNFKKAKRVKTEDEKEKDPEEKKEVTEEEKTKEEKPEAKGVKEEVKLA
So I've got a bunch of compounds here, and I need their IC50 values.
Answers are plain numbers, in µM.

// known answers, use as guide
COMPOUND | TARGET ENTITY | IC50 [µM]
Nc1ccc(-c2cccs2)cc1NC(=O)c1ccc(C2(c3nc(CN4CCCC4)cs3)CCOCC2)cc1 [Example 31] | HDAC 1 (Homo sapiens) | 0.001
Nc1ccc(-c2cccs2)cc1NC(=O)c1ccc(C2(c3nc(CN4CCOCC4)cs3)CCOCC2)cc1 [Example 33] | HDAC 1 (Homo sapiens) | 0.0029
Cc1nc(C2(c3ccc(C(=O)Nc4cc(-c5ccc(F)cc5)ccc4N)cc3)CCOCC2)sc1C [Example 62] | HDAC 1 (Homo sapiens) | 0.00896

Req: Indicate its recorded IC50; the compound in question is Nc1ccccc1NC(=O)c1ccc(C2(c3nc(-c4cccnc4)cs3)CC2)cc1 [Example 5]
Resp: 0.012
